# target: human Factor IXa (human, UniProt P00740 47-191; P00740 227-461)
# procedureDetails: cell-based or functional assay
Square brackets hold non-standard residues; d marks the D form. Ends that are not written are not given here.
measurementKind: EC50 [µM], FXa generation assay

See these solved cases before continuing.
Challenge: Need EC50 [µM], FXa generation assay of `QDGDGKLTCRASYCRRFLVGVH` , thanks.
Response given: > 50 µM

Challenge: Need EC50 [µM], FXa generation assay of `VSGTGRLTCVASYCWMFQLGIF` , thanks.
Response given: < 0.5 µM

Continue with the next binder.
Challenge: Need EC50 [µM], FXa generation assay of RRAPGKLTCL[dA]SYCWLFWTGIA (not fully specified (bridges); cysteine pairing not given here) [RRAPGKLTCLaSYCWLFWTGIA] , thanks.
Response given: > 1 µM
